Observed IC50 for Receptor-interacting serine/threonine-protein kinase 3 (Homo sapiens), reported per entry below.
Dear colleague, please return just the value in nM, with no unit written.

In [3]: df
Out[3]:
                                   molecule                               assaysystem  datavalue
0  c1nc(Nc2ccc3scnc3c2)c2cc(-c3cc[nH]n3)ccc2n1  Receptor-interacting serine/threonine-protein kinase 3 (Homo sapiens)       2100
1   Cc1cscc1-c1ccc2ncnc(Nc3ccc4scnc4c3)c2c1  Receptor-interacting serine/threonine-protein kinase 3 (Homo sapiens)       1900

Read the next record carefully.
Receptor-interacting serine/threonine-protein kinase 3 (Homo sapiens) IC50 of Cc1csc(-c2ccc3ncnc(Nc4ccc5scnc5c4)c3c2)n1 is 382

====

Documented remaining at 0.75 h, 10 µM across a set of compounds
Experiment: Metabolic stability in human liver microsomes assessed as compound remaining at 10 uM incubated for 45 mins by ECHO-MS analysis
Format: ADME, Microsome
Conditions: liver microsomes, read-out: Stability
Dear colleague, please return just the value in %, with no unit written.

>>> df
                                   molecule                     measure  unitssymbol  datavalue
0  Cn1ccnc1-c1cc2c(Nc3ccc4scnc4c3)ncnc2cc1Cl  remaining at 0.75 h, 10 µM            %        105
1   Cn1cncc1-c1ccc2ncnc(Nc3ccc4scnc4c3)c2c1  remaining at 0.75 h, 10 µM            %        108

Per the records, this compound ( Cn1cncc1-c1cc2c(Nc3ccc4scnc4c3)ncnc2cc1Cl ) has remaining at 0.75 h, 10 µM equal to 94

Per the records, this compound ( C1=C(c2cc3ncnc(Nc4ccc5scnc5c4)c3cc2-c2cccs2)COC1 ) has remaining at 0.75 h, 10 µM equal to 108

====

Observed IC50 for Receptor-interacting serine/threonine-protein kinase 3 (Homo sapiens, UniProt Q9Y572), reported per entry below.

// known answers, use as guide
                                   molecule  datavalue
0  c1csc(-c2ccc3ncnc(Nc4ccc5scnc5c4)c3c2)c1   0.398 µM
1  Cn1cccc1-c1cc2c(Nc3ccc4scnc4c3)ncnc2cc1-c1cccc(CO)c1   0.141 µM
2   Cn1cccc1-c1ccc2ncnc(Nc3ccc4scnc4c3)c2c1     2.9 µM
3  OCc1ccc(-c2cc3ncnc(Nc4ccc5scnc5c4)c3cc2-c2cccs2)o1   0.117 µM

Per the records, this compound ( Cn1nc(C(F)(F)F)cc1-c1cc2c(Nc3ccc4scnc4c3)ncnc2cc1Cl ) has IC50 equal to 2.6 µM

====

Target: Receptor-interacting serine/threonine-protein kinase 2 (Homo sapiens, UniProt O43353)
Sequence (O43353 whole entry, the tested form may be a part): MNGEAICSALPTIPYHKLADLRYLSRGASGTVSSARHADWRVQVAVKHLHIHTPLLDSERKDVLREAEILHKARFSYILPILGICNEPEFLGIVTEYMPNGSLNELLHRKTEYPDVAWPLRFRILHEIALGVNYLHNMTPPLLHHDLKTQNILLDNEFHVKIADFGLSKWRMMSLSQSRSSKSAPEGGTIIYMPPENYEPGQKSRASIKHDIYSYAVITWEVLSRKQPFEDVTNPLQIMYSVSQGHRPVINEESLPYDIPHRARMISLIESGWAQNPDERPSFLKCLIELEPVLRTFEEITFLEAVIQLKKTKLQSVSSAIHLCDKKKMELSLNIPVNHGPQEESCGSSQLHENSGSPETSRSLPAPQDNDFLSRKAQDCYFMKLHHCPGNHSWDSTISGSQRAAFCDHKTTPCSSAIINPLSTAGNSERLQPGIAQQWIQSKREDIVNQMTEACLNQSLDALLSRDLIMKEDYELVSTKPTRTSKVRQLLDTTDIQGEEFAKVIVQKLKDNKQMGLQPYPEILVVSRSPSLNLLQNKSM
Test: Inhibition of N-terminal polyHis-tagged human RIPK2 (8 to 310 residues) expressed in Sf9 cells using MBP as substrate preincubated for 15 mins followed by ATP addition measured after 90 mins by ADP-Glo assay
measure: log10(IC50) (log10 of the value in nM)
Log scale reminder: IC50 in nM, then log10 taken.

// known answers, use as guide
>>> df
                                   molecule      measure  datavalue
0  Cc1nc(-c2ccc3ncnc(Nc4ccc5scnc5c4)c3c2)sc1C  log10(IC50)       1.15
1  Cn1nccc1-c1cc2c(Nc3ccc4scnc4c3)ncnc2cc1Cl  log10(IC50)       1.26
2  Cc1csc(-c2ccc3ncnc(Nc4ccc5scnc5c4)c3c2)n1  log10(IC50)       0.70
3  COc1cccc(-c2cc3c(Nc4ccc5scnc5c4)ncnc3cc2Cl)n1  log10(IC50)       3.59
4  Cc1ncc(-c2ccc3ncnc(Nc4ccc5scnc5c4)c3c2)n1C  log10(IC50)       0.95
5  Cc1ncc(-c2cc3c(Nc4ccc5scnc5c4)ncnc3cc2Cl)n1C  log10(IC50)       1.00

Per the records, this compound ( Clc1cc2ncnc(Nc3ccc4scnc4c3)c2cc1-c1cccs1 ) has log10(IC50) equal to 1.15

Per the records, this compound ( Cn1cnc(-c2ccc3ncnc(Nc4ccc5scnc5c4)c3c2)c1 ) has log10(IC50) equal to 1.04

Per the records, this compound ( OCc1cccc(-c2cc3ncnc(Nc4ccc5scnc5c4)c3cc2-c2cccs2)c1 ) has log10(IC50) equal to 0.70

Per the records, this compound ( Cn1cccc1-c1cc2c(Nc3ccc4scnc4c3)ncnc2cc1Cl ) has log10(IC50) equal to 0.90

Per the records, this compound ( Cn1cc(-c2cc3c(Nc4ccc5scnc5c4)ncnc3cc2Cl)cn1 ) has log10(IC50) equal to 0.60

====

Documented pIC50 across a set of compounds
Biological target: Receptor-interacting serine/threonine-protein kinase 2 (Homo sapiens, UniProt O43353)
Experiment: Inhibition of RIPK2-mediated NF-kappaB signalling in MDP-treated human THP-1 cells preincubated for 30 mins followed by MDP addition measured after 24 hrs by luminescence based assay
Assay type: cell-based
Here pIC50 is given on a logarithmic scale as minus log10 of the concentration in mol/L.

// known answers, use as guide
>>> print(df.to_string())
                                   molecule  datavalue
0  Cc1ncc(-c2cc3c(Nc4ccc5scnc5c4)ncnc3cc2Cl)n1C       7.02
1  Cn1nc(C(F)(F)F)cc1-c1cc2c(Nc3ccc4scnc4c3)ncnc2cc1Cl       5.47
2  Cn1cc(-c2ccc3ncnc(Nc4ccc5scnc5c4)c3c2)cn1       7.42
3  OCc1ccc(-c2cc3ncnc(Nc4ccc5scnc5c4)c3cc2-c2cccs2)o1       7.57
4  c1ccc(-c2ccc3ncnc(Nc4ccc5scnc5c4)c3c2)cc1       5.67
5  Cn1cccc1-c1cc2c(Nc3ccc4scnc4c3)ncnc2cc1-c1cccc(CO)c1       7.02
6   Cc1cscc1-c1ccc2ncnc(Nc3ccc4scnc4c3)c2c1       5.81
7   Cn1ccnc1-c1ccc2ncnc(Nc3ccc4scnc4c3)c2c1       6.56
8  C1=C(c2cc3ncnc(Nc4ccc5scnc5c4)c3cc2-c2cccs2)COC1       7.44
9  CC(C)S(=O)(=O)c1ccc2nccc(Nc3ccc4scnc4c3)c2c1       8.40

Per the records, this compound ( Cn1cc(-c2cc3c(Nc4ccc5scnc5c4)ncnc3cc2Cl)cn1 ) has pIC50 equal to 7.20

====

Target: Vascular endothelial growth factor receptor 2 (Homo sapiens)
Assay: Inhibition of human KDR relative to control
Design: concentration or dose not given beside the values
Details: concentration not given here
# inhibition >= 80% gives Y, anything below gives N

Some solved cases for reference:
>>> df
                                   molecule  category
0  OCc1ccc(-c2cc3ncnc(Nc4ccc5scnc5c4)c3cc2-c2cccs2)o1         Y
1   Cn1cncc1-c1ccc2ncnc(Nc3ccc4scnc4c3)c2c1         N
2  c1csc(-c2ccc3ncnc(Nc4ccc5scnc5c4)c3c2)c1         N
3  Cn1cccc1-c1cc2c(Nc3ccc4scnc4c3)ncnc2cc1-c1cccc(CO)c1         N

Problem: Identify whether the reported inhibition of the following molecule is 80% or greater: Cc1ccsc1-c1cc2c(Nc3ccc4scnc4c3)ncnc2cc1-c1cccc(CO)c1
Result: Y

====

Target: Receptor-interacting serine/threonine-protein kinase 2 (Homo sapiens, UniProt O43353)
Test: Inhibition of RIPK2-mediated NF-kappaB signalling in C14-TriLAN-Gly-treated human THP-1 cells preincubated for 30 mins followed by C14-TriLAN-Gly addition measured after 24 hrs by luminescence based assay
Assay type: cell-based
Friendly reminder: IC50 below 100 nM is condition met, at or above is condition not met.

>>> df
                                   molecule           category
0  Cc1ncc(-c2ccc3ncnc(Nc4ccc5scnc5c4)c3c2)s1  condition not met
1  c1csc(-c2ccc3ncnc(Nc4ccc5scnc5c4)c3c2)c1  condition not met

Problem: Would you kindly verify if IC50 of Cn1cc(-c2cc3c(Nc4ccc5scnc5c4)ncnc3cc2Cl)cn1 is strictly less than 100 nM?
Result: condition met

Problem: Would you kindly verify if IC50 of Cn1cnc(-c2cc3c(Nc4ccc5scnc5c4)ncnc3cc2Cl)c1 is strictly less than 100 nM?
Result: condition not met

Problem: Would you kindly verify if IC50 of CC(C)S(=O)(=O)c1ccc2nccc(Nc3ccc4scnc4c3)c2c1 is strictly less than 100 nM?
Result: condition met

Problem: Would you kindly verify if IC50 of c1ccc(-c2ccc3ncnc(Nc4ccc5scnc5c4)c3c2)cc1 is strictly less than 100 nM?
Result: condition not met

Problem: Would you kindly verify if IC50 of c1nc(Nc2ccc3scnc3c2)c2cc(-c3cc[nH]n3)ccc2n1 is strictly less than 100 nM?
Result: condition not met

====

Documented remaining at 2 h, 5 µM across a set of molecules
Test: Metabolic stability in mouse plasma assessed as compound remaining at 5 uM incubated for 120 mins by ECHO-MS analysis
Assay type: ADME, cell-free
Conditions: read-out: Stability
Dear colleague, please return just the value in %, with no unit written.

// known answers, use as guide
In [3]: df
Out[3]:
                                   molecule                 measure  datavalue
0  CC(C)[N+](C)(CCOC(=O)C1c2ccccc2Oc2ccccc21)C(C)C  remaining at 2 h, 5 µM         11
1  Cn1cccc1-c1cc2c(Nc3ccc4scnc4c3)ncnc2cc1-c1cccc(CO)c1  remaining at 2 h, 5 µM        119
2  Cn1cncc1-c1cc2c(Nc3ccc4scnc4c3)ncnc2cc1Cl  remaining at 2 h, 5 µM        102

Read the next record carefully.
Per the records, this molecule ( OCc1ccc(-c2cc3ncnc(Nc4ccc5scnc5c4)c3cc2-c2cccs2)o1 ) has remaining at 2 h, 5 µM equal to 107

Numbers sourced from ChEMBL document CHEMBL5625233.
